- Test system: PKAC-beta;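 also: KINOMEscan kinase panel screen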
- Construct: gene PRKACB
- Condition set: concentration: 1 μM, replicates: in singlicate; n = 1
Provide the reported %Inh of each item.
One number for each entry, in %.

Please review the entries below; each comes with its answer.
| Compound | %Inh (%) |
| --- | --- |
| O=C(Nc1n[nH]c2nc(-c3ccco3)c(Br)cc12)c1ccc(CN2CCCC2)cc1.O=C(O)[C@H](O)[C@@H](O)C(=O)O | 0 |
| Cc1ccc(NC(=O)c2cccc(C#N)c2)cc1-c1ccc(C(=O)Nc2ccncc2)cc1 | 0 |
| COC(=O)c1cccc(NC(=O)NCCNc2ccnc(Nc3ccc(F)cc3)n2)c1 | 0 |
| Cc1cccc(-c2nc(Nc3ccc4[nH]nnc4c3)c3ccccc3n2)n1 | 0 |
| Nc1nc(-c2ccccn2)c(-c2ccnc3ccccc23)s1 | 4 |

Report %Inh for each item below.
1. Cl.Cn1ccc(-c2cccc(Nc3ccnc4cc(-c5nccs5)ccc34)c2)n1
2. Nc1nc(-c2ccc3c(N)n[nH]c3c2)cc(N2CCC[C@@H](C(=O)Nc3ccccc3)C2)n1.O=C(O)C(F)(F)F.O=C(O)C(F)(F)F
3. O=C(Nc1ccccc1F)NC1CCN(c2ccnc(Nc3ccc(F)cc3)n2)C1 (stereo not shown)
4. CC(=O)Nc1n[nH]c2ncc(-c3ccccc3)cc12
5. Fc1cccc(COc2ccc(Nc3ncnc4cc[nH]c34)cc2Cl)c1
6. Fc1ccc(-c2ncn(CCCNCc3ccccc3)c2-c2ccncc2)cc1
7. CN1CCC(n2cnc(-c3ccc(F)cc3)c2-c2ccnc(NC3CCNCC3)n2)CC1
8. Fc1ccc(Nc2nccc(-c3c(-c4ccc(Cl)cc4)nn4ncccc34)n2)cc1F

1. 0
2. 22
3. 0
4. 14
5. 1
6. 6
7. 13
8. 24
